# System: MS2 coat protein
# protocol_details: apparent KD of MS2 coat protein, switch ON state; designed switch direction (-1 OFF switch, 1 ON switch): -1; higher = weaker reporter binding
# condition_parameters: FMN input: 0 or 200 uM; Eterna round: R93 (includes R88 designs)
apparent KD of MS2 coat protein listing for selected sequences.
measured_endpoint: apparent KD of MS2 coat protein

sequence_code | target_or_system | measured
AAGAACGUAGGAUAUACAUGAAAGAAAGAAAAGAAAAGAAAACAUGAGGAUCACCCAUGUAGAAGGACGUAGAA [EteRNA is fun!] | MS2 coat protein | 20 nM
AAAAAACAUGAGGAUCACCCAUGUAAGGAUAUGCUAGGAAAAAGAAAAAUAAAAACUAGCAGAAGGUAUAUGAA [JL wbt mod 12] | MS2 coat protein | 24.5 nM
GGUUGGCGAGGAUAUACAUGAGGAUCACCCAUGUGAGAGAUAAAAGUGAGAAAGAAAAGUAGAAGGCGCUGACG [salish99-ex3-45] | MS2 coat protein | 29.2 nM
AAAUGUCUAGGAUAUACAUGAGGAUCACCCAUGUGUAAAAAUAAAUACACAAAAGAAAGUAGAAGGAGACAAAA [Ex 3 May 13] | MS2 coat protein | 22.4 nM
